Answer each item with its documented pIC50.
- target-or-system: MCH receptor (Homo sapiens, UniProt Q99705)
- procedure-details: High throughput functional screening FLIPR/FDSS6000: inhibition of MCH-evoked intracellular Ca2+ changes
- Assay type: cell-based
- setup-conditions: class by percent of control at 10^-7 M or by IC50; read-out: class
pIC50: −log10 of the molar value.

>  <compound>
Cc1ccc([N+](=O)[O-])cc1NC(=O)N[C@H]1CC[C@@H](Nc2nc(N(C)C)c3ccccc3n2)CC1

>  <value-kind>
pIC50

>  <value-observed>
> 7.30

$$$$
>  <compound>
CN(C)c1nc(N[C@H]2CC[C@@H](NC(=O)Nc3ccccc3I)CC2)nc2ccccc12

>  <value-kind>
pIC50

>  <value-observed>
> 7.30

$$$$
>  <compound>
CN(C)c1nc(N[C@H]2CC[C@@H](NC(=O)Nc3ccc(SC(F)(F)F)cc3)CC2)nc2ccccc12

>  <value-kind>
pIC50

>  <value-observed>
< 6.70

$$$$
>  <compound>
CCOC(=O)NC[C@H]1CC[C@@H](Nc2nc(N(C)C)c3ccccc3n2)CC1

>  <value-kind>
pIC50

>  <value-observed>
< 6.70

$$$$
>  <compound>
CN(C)c1nc(N[C@H]2CC[C@@H](NC(=O)NC3c4ccccc4-c4ccccc43)CC2)nc2ccccc12 [compound 841]

>  <value-kind>
pIC50

>  <value-observed>
6.70 to 7.30

$$$$
>  <compound>
COc1ccccc1NC(=O)N[C@H]1CC[C@@H](Nc2nc(N(C)C)c3ccccc3n2)CC1

>  <value-kind>
pIC50

>  <value-observed>
6.70 to 7.30

$$$$

For the 7 compounds below, give their pIC50 values.
1. CN(C)c1nc(N[C@H]2CC[C@@H](NC(=O)NCc3ccc(Cl)cc3Cl)CC2)nc2ccccc12
2. CN(C)c1nc(N[C@H]2CC[C@@H](NC(=O)NCc3ccc(Cl)c(Cl)c3)CC2)nc2ccccc12
3. CN(C)c1nc(N[C@H]2CC[C@@H](NC(=O)Oc3ccccc3)CC2)nc2ccccc12
4. C=CCOC(=O)N[C@H]1CC[C@@H](Nc2nc(N(C)C)c3ccccc3n2)CC1
5. CN(C)c1nc(N[C@H]2CC[C@@H](CNC(=O)OCc3ccccc3Cl)CC2)nc2ccccc12
6. CN(C)c1nc(N[C@H]2CC[C@@H](NC(=O)OCc3ccccc3Cl)CC2)nc2ccccc12
7. CN(C)c1nc(N[C@H]2CC[C@@H](NC(=O)Nc3ccc(-c4ccccc4)cc3)CC2)nc2ccccc12

Ans.
["> 7.30", "6.70 to 7.30", "< 6.70", "< 6.70", "6.70 to 7.30", "6.70 to 7.30", "< 6.70"]

###

- target-or-system: MCH receptor (Homo sapiens)
- procedure-details: High throughput functional screening FLIPR/FDSS6000: inhibition of MCH-evoked intracellular Ca2+ changes
- Assay type: cell-based
- setup-conditions: class by percent of control at 10^-7 M or by IC50; read-out: class
pIC50: −log10 of the molar value.
Answer each item with its documented pIC50.

Worked examples follow.
>  <compound>
CN(C)c1nc(N[C@H]2CC[C@@H](NC(=O)Nc3ccccc3OC(F)(F)F)CC2)nc2ccccc12 [compound 152]

>  <target-or-system>
MCH receptor (Homo sapiens)

>  <value-kind>
pIC50

>  <value-observed>
< 6.70

$$$$
>  <compound>
CN(C)c1nc(N[C@H]2CC[C@@H](NC(=S)NC34CC5CC(CC(C5)C3)C4)CC2)nc2ccccc12 (relative stereo) [compound 200]

>  <target-or-system>
MCH receptor (Homo sapiens)

>  <value-kind>
pIC50

>  <value-observed>
< 6.70

$$$$
>  <compound>
Cc1cccc(Cl)c1NC(=O)N[C@H]1CC[C@@H](Nc2nc(N(C)C)c3ccccc3n2)CC1 [compound 90]

>  <target-or-system>
MCH receptor (Homo sapiens)

>  <value-kind>
pIC50

>  <value-observed>
> 7.30

$$$$
>  <compound>
CN(C)c1nc(N[C@H]2CC[C@@H](NC(=O)Nc3cccc([N+](=O)[O-])c3)CC2)nc2ccccc12 [compound 135]

>  <target-or-system>
MCH receptor (Homo sapiens)

>  <value-kind>
pIC50

>  <value-observed>
< 6.70

$$$$
>  <compound>
CN(C)c1nc(N[C@H]2CC[C@@H](CNC(=S)Nc3cccc4nsnc34)CC2)nc2ccccc12 [compound 815]

>  <target-or-system>
MCH receptor (Homo sapiens)

>  <value-kind>
pIC50

>  <value-observed>
< 6.70

$$$$

For the 2 compounds below, give their pIC50 values.
1. CCCCCCCCOC(=O)NC[C@H]1CC[C@@H](Nc2nc(N(C)C)c3ccccc3n2)CC1 [compound 873]
2. CN(C)c1nc(N[C@H]2CC[C@@H](NC(=O)OCC(C)(C)C)CC2)nc2ccccc12 [compound 847]

Ans.
1. < 6.70
2. < 6.70

All values here come from patent US20070010671A1.
